# target: Mcl-1 protein (UniProtKB Q07820) (Homo sapiens (Human), UniProt Q07820)
# Sequence (Q07820 whole entry): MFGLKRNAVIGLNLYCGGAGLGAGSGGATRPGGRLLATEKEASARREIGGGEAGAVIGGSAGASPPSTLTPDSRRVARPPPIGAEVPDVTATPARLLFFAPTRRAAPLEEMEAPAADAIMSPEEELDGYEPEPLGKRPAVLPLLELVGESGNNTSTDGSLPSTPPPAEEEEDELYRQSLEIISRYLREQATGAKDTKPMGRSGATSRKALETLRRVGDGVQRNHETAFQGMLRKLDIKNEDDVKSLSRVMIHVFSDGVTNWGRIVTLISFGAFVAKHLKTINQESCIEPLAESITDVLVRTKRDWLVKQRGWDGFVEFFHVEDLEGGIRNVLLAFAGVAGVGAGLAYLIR
# assay_info: Inhibition of Mcl-1 by the fluorescence polarisation assay (Example A, Method A)
# condition_info: fluorescence polarization assay
value_kind: Ki (nM)
# output: bare number, implied unit nM

Here's what some known entries look like.
>>> reported_measurement("O=C(O)[C@]1(Nc2cccc(Cl)c2)CC[C@@]2(CC1)c1ccccc1CC2CCCOc1ccnc2c1CCC2O (some centres unmarked)")
99.2
>>> reported_measurement("Cc1cccc(C2Cc3ccccc3C23CCC(Nc2cccc(Br)c2)(C(=O)O)CC3)c1 (centres unmarked)")
846
>>> reported_measurement("O=C(O)[C@]1(Nc2cccc(Cl)c2)CC[C@]2(CC1)C(/C=C/c1ccc(-c3ccccc3)cc1)=Cc1ccccc12")
311
>>> reported_measurement("C=CCOC1Cc2ccccc2[C@]12CC[C@@](Nc1cccc(Br)c1)(C(=O)O)CC2 (some centres unmarked)")
1550
>>> reported_measurement("O=C(O)[C@]1(Nc2cccc(Cl)c2)CC[C@]2(CC1)C(CCOc1cccc3[nH]ccc13)=Cc1ccccc12")
61.5

Request the reported Ki associated with O=C(O)[C@]1(Nc2cccc(Cl)c2)CC[C@@]2(CC1)c1ccccc1C[C@H]2C[C@H](COc1ccnc2ccsc12)c1ccccc1 1640

Request the reported Ki associated with COc1ccc(CCCC2=Cc3ccccc3[C@]23CC[C@@](Nc2cccc(Cl)c2)(C(=O)O)CC3)cc1 710

Request the reported Ki associated with O=C(O)[C@]1(Nc2cccnc2)CC[C@]2(CC1)C(Br)=Cc1ccccc12 4380

Request the reported Ki associated with COc1cccc(C2=Cc3ccccc3[C@]23CC[C@@](Nc2cccc(Cl)c2)(C(=O)O)CC3)c1 836

Request the reported Ki associated with O=C(O)[C@]1(Nc2cccc(Br)c2)CC[C@@]2(CC1)C(=O)N(Cc1ccccc1)c1ccccc12 7080

Request the reported Ki associated with COc1cccc(C2Cc3ccccc3[C@]23CC[C@@](Nc2cccc(Cl)c2)(C(=O)O)CC3)c1C (single isomer, unassigned) [Example 322] 17700

Request the reported Ki associated with COc1cccc(C2Cc3ccccc3[C@]23CC[C@@](Nc2cccc(Cl)c2)(C(=O)O)CC3)c1C (single isomer, unassigned) [Example 321] 2940

Request the reported Ki associated with O=C(O)[C@]1(Nc2cccc(Cl)c2)CC[C@@]2(CC1)c1ccccc1C[C@@H]2c1cccc(OCc2ccccc2)c1 13200

Request the reported Ki associated with CC[C@H]1c2ccccc2[C@]2(CC[C@@](Nc3cccc(Cl)c3)(C(=O)O)CC2)[C@H]1C (racemic) 4660

====

# target: Cy5-labelled Mcl1 (amino acids 171-321) C286S protein (UniProtKB Q07820) (Homo sapiens (Human), UniProt Q07820, C286S)
# Sequence (Q07820 171-321 C286S): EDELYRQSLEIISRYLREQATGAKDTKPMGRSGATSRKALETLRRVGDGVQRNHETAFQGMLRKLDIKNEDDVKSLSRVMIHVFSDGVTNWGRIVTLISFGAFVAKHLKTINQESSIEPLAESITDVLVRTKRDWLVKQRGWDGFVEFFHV
# assay_info: Inhibition of Mcl-1 by the fluorescence quenching assay (Example A, Method B)
# Format: binding
# condition_info: Ki determined from IC50
pKi: −log10 of the molar value.
Would you mind labelling by pKi? At or over 7 is 1 (yes), under is 0 (no).

Worked examples follow.
>>> category_label("C[C@@H](COc1ccnc2ccsc12)CN1Cc2ccccc2[C@]12CC[C@@](Nc1cccc(Cl)c1)(C(=O)O)CC2 [Example 38]")
"1 (yes)"
>>> category_label("Cc1cc2c(cc1C)[C@]1(CC[C@@](Nc3cccc(Cl)c3)(C(=O)O)CC1)C(Br)=C2 [Example 140]")
"1 (yes)"
>>> category_label("COc1cc2c(cc1Cl)CN(C[C@@H](C)COc1ccnc3c1[C@H](C)CCC3)[C@]21CC[C@](Nc2cccc(Cl)c2)(C(=O)O)CC1 [Example 46]")
"1 (yes)"
>>> category_label("Cc1cccc(N[C@]2(C(=O)O)CC[C@@]3(CC2)C(Br)=Cc2ccccc23)c1 [Example 88]")
"0 (no)"
>>> category_label("C[C@@H](COc1ccnc2c1[C@H](C)CCC2)CN1Cc2cc3c(cc2[C@]12CC[C@@](Nc1cccc(Cl)c1)(C(=O)O)CC2)OCO3 [Example 44]")
"1 (yes)"

hey, is pKi for this one >= 7? C[C@@H](COc1ccnc2c1[C@H](C)CCC2)CN1Cc2cc3c(cc2[C@]12CC[C@](Nc1cccc(Cl)c1)(C(=O)O)CC2)OCO3 [Example 45] 0 (no)
